- TARGET DESC: BIR2 domain of XIAP (Homo sapiens, UniProt P98170, C202A/C213G)
- Construct: 6× Histidine-tagged BIR2 domain, corresponding to amino acids 124-240 of XIAP
- Sequence (P98170 with tags, fused parts or gaps C202A/C213G): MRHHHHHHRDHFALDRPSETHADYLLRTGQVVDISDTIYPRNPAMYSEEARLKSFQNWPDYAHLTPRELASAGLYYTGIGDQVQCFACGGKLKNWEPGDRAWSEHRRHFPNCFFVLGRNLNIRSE
- TEST DETAILS: TR-FRET assay for BIR2 (inhibition of binding of XIAP BIR2 domain to SMAC-derived Peptide A)
- MEASUREMENT PARAMETERS: 6x Histidine-tagged BIR2 domain (amino acids 124-240 of XIAP) 10 nM, Peptide A 20 nM
TEST READOUT: pIC50
To interpret pIC50, take it as minus log10 of a concentration measured in moles per litre.

Could you tell me which pIC50 is on file for CCNC(=O)C1Cc2cccnc2N1C(=O)[C@@H](NC(=O)[C@H](CC)NC)[C@@H](C)CC (some centres unmarked) ? 5.99

What do you have for `CN[C@@H](C)C(=O)N[C@H](C(=O)N1c2ncccc2C[C@H]1C(=O)Nc1ccccc1Oc1ccccc1)C(C)C` ? 6.80

// next record `CN[C@@H](C)C(=O)N[C@H](C(=O)N1c2ncccc2C[C@H]1C(=O)Nc1cnccc1C)C(C)C` 6.63

Moving on to `CN[C@@H](C)C(=O)N[C@H](C(=O)N1c2ncccc2C[C@H]1C(=O)NCCS(=O)(=O)N(C)C)C(C)C` 6.13

Repeat for the following molecule: `CN[C@@H](C)C(=O)N[C@H](C(=O)N1c2ncccc2C[C@H]1C(=O)Nc1ccc(C(=O)OC)cc1F)C(C)C` 6.99

Same lookup for `CN[C@@H](C)C(=O)N[C@H](C(=O)N1c2ncccc2C[C@H]1C(=O)Nc1ccccc1-c1ccccc1)C(C)C` , please. 6.97

Next molecule: `CN[C@@H](C)C(=O)N[C@H](C(=O)N1c2ncccc2C[C@H]1c1nc2ccccc2[nH]1)C(C)C` 6.86

Repeat with `CN[C@@H](C)C(=O)N[C@H](C(=O)N1c2ncccc2C[C@H]1C(=O)Nc1c(F)cccc1C(F)(F)F)C(C)C` 7.16

Now try `CN[C@@H](C)C(=O)N[C@H](C(=O)N1c2ncccc2C[C@H]1C(=O)Nc1ccc(S(C)(=O)=O)cc1F)C(C)C` . 7.05

How about `CN[C@@H](C)C(=O)N[C@H](C(=O)N1c2ncccc2C[C@H]1C(=O)Nc1c(F)cccc1F)C1CCOCC1` ? 8.01

// repeat for `CN[C@@H](C)C(=O)N[C@H](C(=O)N1c2ncccc2C[C@H]1C(=O)Nc1cc(F)cc(F)c1)C(C)C` and report 6.37

Check `CN[C@@H](C)C(=O)N[C@H](C(=O)N1c2ncccc2C[C@H]1C(=O)Nc1ccc2ccccc2c1)C(C)C` too. 6.79

Try the molecule `CCN[C@@H](C)C(=O)N[C@H](C(=O)N1c2ncccc2C[C@H]1C(=O)Nc1ccccc1)C(C)C` 6.63

Queued: `CN[C@@H](C)C(=O)N[C@H](C(=O)N1c2ncccc2C[C@H]1C(=O)Nc1ccc(C(=O)N(C)C)cc1F)C(C)C` 7.45

* * *

Recorded measurements of IC50, one per entry
- TARGET DESC: BIR2 domain of XIAP (Homo sapiens, UniProt P98170, C202A/C213G)
- Construct: 6× Histidine-tagged BIR2 domain, corresponding to amino acids 124-240 of XIAP
- TEST DETAILS: TR-FRET assay for BIR2 (inhibition of binding of XIAP BIR2 domain to SMAC-derived Peptide A)
- MEASUREMENT PARAMETERS: 6x Histidine-tagged BIR2 domain (amino acids 124-240 of XIAP) 10 nM, Peptide A 20 nM
Reply with just the number (in nM).

Use the examples below as a reference point.
Item under review: CN[C@@H](C)C(=O)N[C@H](C(=O)N1c2ncccc2C[C@H]1C(=O)Nc1ccccc1)C(C)C [Example 11] . Reported IC50? 63.5

And what about the molecule CN[C@@H](C)C(=O)N[C@H](C(=O)N1c2ncccc2C[C@H]1C(=O)Nc1nc(C)cs1)C(C)C [Example 66] ? 496

Moving on to the next molecule: [2H]C([2H])([2H])N[C@@H](CC)C(=O)N[C@H](C(=O)N1c2ncccc2C[C@H]1C(=O)Nc1ccccc1)C1CCCCC1 [Example 83] 52.8

---
Quick one: IC50 of CN[C@@H](C)C(=O)N[C@@H](CCS(C)(=O)=O)C(=O)N1c2ncccc2C[C@H]1C(=O)Nc1ccccc1 [Example 96] ? 108

Then CCNC(=O)C1Cc2cccnc2N1C(=O)[C@@H](NC(=O)[C@H](C)NC)C1CCCCC1 (some centres unmarked) [Example 4] ? 2120

* * *

List of pIC50 values.
- TARGET DESC: BIR3 domain of XIAP (Homo sapiens, UniProt P98170)
- Construct: BIR3 domain, corresponding to amino acids 241-356 of XIAP
- Sequence (P98170 with tags, fused parts or gaps): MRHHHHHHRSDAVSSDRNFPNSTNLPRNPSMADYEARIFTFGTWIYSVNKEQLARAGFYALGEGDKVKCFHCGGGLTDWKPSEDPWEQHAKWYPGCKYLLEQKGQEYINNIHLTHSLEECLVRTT
- TEST DETAILS: TR-FRET assay for BIR3 (inhibition of binding of XIAP BIR3 domain to SMAC-derived Peptide A)
- MEASUREMENT PARAMETERS: 6x Histidine-tagged BIR3 domain (amino acids 241-356 of XIAP) 10 nM, Peptide A 20 nM
pIC50: −log10 of the molar value.

Looking for the measured pIC50 of CN[C@@H](C)C(=O)N[C@H](C(=O)N1CC(C)(C)c2cccnc21)C(C)C [Example 2] , can you help? < 4.26

Follow-up item: CN[C@@H](C)C(=O)N[C@H](C(=O)N1c2ncccc2C[C@H]1C(=O)Nc1ccc(F)cc1)C(C)C [Example 21] < 4.26

Further, for CN[C@@H](C)C(=O)N[C@H](C(=O)N1c2ncccc2C[C@H]1C(=O)Nc1ccccc1C#N)C(C)C [Example 48] ? < 4.26

Next up: CN[C@@H](C)C(=O)N[C@H](C(=O)N1c2ncccc2C[C@H]1C(=O)Nc1cnccc1C)C(C)C [Example 38] < 4.26
